- experimental-protocol: Turbidity, derived count rate of scattered light
- Assay type: physicochemical
- protocol-conditions: derived count rate of scattered light (turbidity)
assay-metric: Count Rate
Output spec: single numeric token, no unit.

Form field: reported Count Rate of CQFQFQF 7929

If you can, please state the reported Count Rate value of KFKQFFNMWQ . 236.9

For the substance KAKAQA , what Count Rate is on record? 20.93

Using the record for HRRHFRHKITKKK , report its Count Rate. 9.5

Report Count Rate for HHHHKIKIKIKIWWWW please. 23756.66667

# lookup: Count Rate of QCKIKQIINMWQ [reference compound] 2602

Return reported Count Rate; argument: RGDSGGGGGGKIKIQIC 10416.16667

Item under review: KIKQIINMWQ . Reported Count Rate? 615.5

Please give the measured Count Rate for this substance: CKFKQFF 2.567

Recorded Count Rate of KIKIKIQINMWQ , please. 1603.1

I would be grateful if you could share the reported Count Rate for KNDKND . 52.4

Suppose we examine the substance KIKIQIAMWQ ; what Count Rate value has been reported? 540.9

Given the entry QCKFKFQF , report its measured Count Rate. 2669

Which Count Rate is listed for HGEHGEHGE ? 340.4

I would be grateful if you could share the reported Count Rate for KIKIQIMQWN . 2202.7

Requested field: Count Rate. Item: CKFKQFFNMWQ 8210

// lookup Count Rate for EIEIQINM 134

Endpoint output: Count Rate of KVKVQVV . Value? 27.73

Using the record for NMWQKIKQII , report its Count Rate. 982.4

Fill in the blank: the reported Count Rate of KIKQIIN is ____. 64.03

Value lookup for Count Rate; key = QCKAKAQA 1319.1

Quick one: Count Rate for CETMYDKILKNLSRSR ? 1099

Reported Count Rate, substance KIKIQINMWQ : ____ 2196

Record request: Count Rate value, item KFKFQFNMWQ 734.6

Query (substance): QCKAKAQANM ; field requested: Count Rate 204.1

Count Rate for FKFDKFKFDK ? 45.13

Look up Count Rate for this substance: EFEFQF 405.4

// lookup Count Rate for HGEHGE 240.6

Looking for the measured Count Rate of KIKIQI , can you help? 108.3

Item under review: RGDSKIKIQIC . Reported Count Rate? 2699

Find the recorded Count Rate belonging to NMWQKVGTPL and report it. 26.97

# lookup: Count Rate of RGEKIKIQINM 594.6

Requested read-out: Count Rate. Entry: KFKFQF 183.4

I have this substance here, KIKIQINMAQ , and I need its recorded Count Rate. 5859

Sample CKIKQIINM — what was its Count Rate? 9058

Consider the substance KYKGAIIGNIK and give its measured Count Rate. 44.1

Query: Count Rate; subject: KFKFKFQF 1036

So what does the record say about Count Rate for CRFRVPF ? 73.97

Item under review: KIKIQIC . Reported Count Rate? 980.7

I'd like to know its Count Rate. The substance in question is KLKQLL 319.9

For the substance HIHIQIC , what Count Rate is on record? 260.6

I'd like to know its Count Rate. The substance in question is CKIKIQIII 4953

For the substance shown here, CKIKIQIRGD , give the reported Count Rate. 5777

Param item = SISISRRI ; retrieve measured Count Rate. 25.27

Requested read-out: Count Rate. Entry: CKIKQIINMWQ 8317

Field request: Count Rate | item: KIKIQIII 94.97

Bench note: what Count Rate did CKFKFQFNM show? 2224

Given the entry CKIKIQINMW , report its measured Count Rate. 4915

Count Rate for CEIEIQINM ? 58.43

So what does the record say about Count Rate for CKFKFQF ? 5303

Param item = KIKIQIRGD ; retrieve measured Count Rate. 114

Please look up its Count Rate: RGDCKFKFQF 1338

Using the record for KLKLKLQL , report its Count Rate. 42.87

// query Count Rate value for entry HHHHKIKIKIKIYYYY 12792.53333

Would you kindly share the measured Count Rate for QCKFKFQFNM ? 3669.6

Reported Count Rate, substance KVKGVGK : ____ 51.17

# input substance: HHHHKAKAKAKAWWWW ; wanted: its Count Rate 658.9

Look up Count Rate: KFKQFFINMWQ 8996

Recorded Count Rate of KIKIQIN , please. 43.43

Tell me the measured Count Rate of MKIKIQINMWQ , please. 1475

Look up Count Rate for this substance: CKAKAQANMWQ 8.967

Report Count Rate for KIKIKIKI please. 155.1

Give the measured Count Rate of QCKIKQIINM . 20551.06667

So what's the measured Count Rate for this one? KFKFQFNM 131.8

Count Rate for HLHLPLL ? 200

For KIKIQINMWWQ , what is its reported Count Rate? 3893

For the substance shown here, KAKQAANMWQ , give the reported Count Rate. 690.5

Any idea what its Count Rate is? The substance is KFKFQFF 37.77

Find the recorded Count Rate belonging to RGDKIKIQI and report it. 298.1

Given the entry CEFEFQFNMWQ , report its measured Count Rate. 186.3

I have this substance here, KVKVKVQV , and I need its recorded Count Rate. 94.37

Requested read-out: Count Rate. Entry: QCKIKQII 301

For CEFEFQF , what is its reported Count Rate? 367.4

I would be grateful if you could share the reported Count Rate for CKIKQIIRGD . 3495

I would be grateful if you could share the reported Count Rate for QCKIKIQINM . 9524

----------
- experimental-protocol: Turbidity, derived count rate of scattered light
- Format: physicochemical
- protocol-conditions: Log10 of derived count rate of scattered light (turbidity)
Outcome: rule met for Log10 Count Rate of at least 3; rule not met for anything lower.

Determine whether this substance has Log10 Count Rate no lower than 3: KIKIQINM rule not met

Confirm if Log10 Count Rate reported for the substance CKFKQFFNMWQ is 3 or above. rule met

Hello, I need to know if NMWQKVGTPL has measured Log10 Count Rate not below 3. Thanks! rule not met

Please check the record CKIKIQINMWQ and state if its Log10 Count Rate is at or above 3. rule met

For this substance, is measured Log10 Count Rate 3 or higher? KIKIQIAMWQ rule not met

Check this substance for Log10 Count Rate at or above 3: KFKFQFFF rule met

Test whether the substance MKFKFQF records Log10 Count Rate of 3 or higher. rule not met

Identify whether the reported Log10 Count Rate of the following substance is 3 or greater: NMWQKAKAQA rule not met

// inclusive: Log10 Count Rate at least 3? input: EIEIEIEI rule not met

Could you please find out whether KAKAQA has Log10 Count Rate that meets 3 or exceeds it? rule not met

Check this substance for Log10 Count Rate at or above 3: CKIKIQINMW rule met

Please check the record KIKIQIMQWN and state if its Log10 Count Rate is at or above 3. rule met

Check the entry QCKFKFQF : does Log10 Count Rate equal or exceed 3? rule met

Dear colleague, could you confirm whether CKIKIQINM has Log10 Count Rate at or above 3? rule met

Has RGDSKIKIQIC a recorded Log10 Count Rate greater than or equal to 3? rule met

Hello, I need to know if QCKIKQIINM has measured Log10 Count Rate not below 3. Thanks! rule met

Entry NMWQKFKFQF : is its Log10 Count Rate no less than 3? rule met

API: above_or_equal(metric=Log10 Count Rate, cutoff=3) for item QCKAKAQA rule met

I'd appreciate it if you could say whether KVKGVGK has Log10 Count Rate at least equal to 3. rule not met

Hi, just wondering whether KWKWQW shows Log10 Count Rate of 3 or higher. rule met

Is Log10 Count Rate at least 3? Consider KFKFQFNMW rule not met

Exam item: decide whether the reported Log10 Count Rate for ILKNLSRSRKIKIQIC is at least 3. rule met

Determine whether measured Log10 Count Rate meets or exceeds 3 for RGDKIKIQINMWQ rule met

Hi team, for CSISIQI , is the recorded Log10 Count Rate at or above 3? rule met

Dear colleague, could you confirm whether KIKIQIRGD has Log10 Count Rate at or above 3? rule not met

Check the entry CRFRFQF : does Log10 Count Rate equal or exceed 3? rule not met

# bool: Log10 Count Rate of KIKIQINMWWWQ >= 3 rule met

Test whether the substance QCKFKFQFNM records Log10 Count Rate of 3 or higher. rule met

Check if Log10 Count Rate >= 3 (inclusive). Item: CSISIQINM rule met

For this substance, is measured Log10 Count Rate 3 or higher? KLKLQLL rule not met

Is it the case that KIKIQINAWQ has Log10 Count Rate reaching or exceeding 3? rule met

Has KAKAQANM a recorded Log10 Count Rate greater than or equal to 3? rule not met

Determine whether measured Log10 Count Rate meets or exceeds 3 for QCKFKQFFNMWQ rule met

Decide: is the reported value of Log10 Count Rate for QCKFKQFFNM equal to or greater than 3? rule met

Does the reported Log10 Count Rate for EFEFQF fall at or above the 3 mark? rule not met

Confirm if Log10 Count Rate reported for the substance CKFKQFF is 3 or above. rule not met

Exam item: decide whether the reported Log10 Count Rate for CEIEIQINMWQ is at least 3. rule met

Assess whether reported Log10 Count Rate for CRFRVPF sits at 3 or higher. rule not met

// inclusive: Log10 Count Rate at least 3? input: KFKFQFF rule not met

Record QCKIKQIINMWQ [reference compound] ; criterion: Log10 Count Rate no lower than 3. Met? rule met

Dear colleague, could you confirm whether EIKIQINM has Log10 Count Rate at or above 3? rule met

Dear colleague, could you confirm whether RPRGLLLGNLR has Log10 Count Rate at or above 3? rule not met

API: above_or_equal(metric=Log10 Count Rate, cutoff=3) for item KYKYQY rule not met

Form field: Log10 Count Rate at least 3? Entry: PPFHPPPFHP rule not met

Determine whether this substance has Log10 Count Rate no lower than 3: CKFKQFFNM rule met

Log10 Count Rate >= 3 for KIKIQINMW ? rule not met

Check this substance for Log10 Count Rate at or above 3: NMWQKIKIQI rule met

Is reported Log10 Count Rate greater than or equal to 3 here: MKIKIQINMWQ rule met

Can KIKIQI be said to have Log10 Count Rate at or above 3? rule not met

Does Log10 Count Rate meet or surpass 3 for ILKNLSRSRKIKIQINMWQ ? rule not met

Assess whether reported Log10 Count Rate for RGDCKIKIQINM sits at 3 or higher. rule met

# check: Log10 Count Rate of RGDKIKIQINM is greater than or equal to 3 rule not met

Log10 Count Rate >= 3 for CKAKAQANM ? rule not met

Would you say CEIEIQI shows Log10 Count Rate at minimum 3? rule not met

Item RGDKIKIQIC with Log10 Count Rate of 3 or above? rule met

Textbook exercise: given the entry CEFEFQFNMWQ , state whether its Log10 Count Rate is greater than or equal to 3. rule not met

Does the substance RGECKFKFQF have recorded Log10 Count Rate that is 3 or more? rule not met

Check if Log10 Count Rate >= 3 (inclusive). Item: QCKIKIQINMWQ rule met

Would you say KVKVKVQV shows Log10 Count Rate at minimum 3? rule not met

In plain terms: is recorded Log10 Count Rate at least 3 for CKAKAQANMWQ ? rule not met

Determine whether this substance has Log10 Count Rate no lower than 3: QCKAKAQANMWQ rule not met

Record KIKQII ; criterion: Log10 Count Rate no lower than 3. Met? rule not met

Does the reported Log10 Count Rate for QCKIKIQI fall at or above the 3 mark? rule met

Given the entry KIKIQINMAQ , answer whether its Log10 Count Rate meets or surpasses 3. rule met

# check: Log10 Count Rate of RLRLTLC is greater than or equal to 3 rule not met

In plain terms: is recorded Log10 Count Rate at least 3 for KIKQIINMWQ ? rule not met

Check if Log10 Count Rate >= 3 (inclusive). Item: KIKIQINMWWQ rule met

Where do these numbers come from? They come from paper PMC10447463.
